- Assay Overview: The drug is tested on Z-013 corresponding to rabbit gut metagenome with ENA study accession number: PRJEB37062 and ENA sample accession number: ERS12561813 for biotransformation under anaerobic condition. The drug concentrations were measured over 9 timepoints collected between 0 and 24 hours of incubation by liquid-chromatography-coupled mass spectrometry (LC–MS); note: call rule not given here
- Assay Conditions: 2 µM
Assay Readout: Bacterial Biotransformation

Worked examples follow.
Q. I'd like to know its Bacterial Biotransformation. The compound in question is CCCc1nc(C(C)(C)O)c(C(=O)OCc2oc(=O)oc2C)n1Cc1ccc(-c2ccccc2-c2nnn[nH]2)cc1 [OLMESARTAN MEDOXOMIL]
A. Compound metabolized

Q. I'd like to know its Bacterial Biotransformation. The compound in question is CCOC(=O)[C@H](CCc1ccccc1)N[C@@H](C)C(=O)N1[C@H](C(=O)O)C[C@H]2CCCC[C@@H]21 [TRANDOLAPRIL]
A. Compound NOT metabolized

Q. I'd like to know its Bacterial Biotransformation. The compound in question is CCc1nc(N)nc(N)c1-c1ccc(Cl)cc1 [PYRIMETHAMINE]
A. Compound NOT metabolized

Q. I'd like to know its Bacterial Biotransformation. The compound in question is CCN(CC)CC#CCOC(=O)C(O)(c1ccccc1)C1CCCCC1.Cl (centres undefined) [OXYBUTYNIN CHLORIDE]
A. Compound NOT metabolized

Q. I'd like to know its Bacterial Biotransformation. The compound in question is CC(C)(C(=O)O)c1ccc(C(O)CCCN2CCC(C(O)(c3ccccc3)c3ccccc3)CC2)cc1 (centres undefined) [FEXOFENADINE]
A. Compound NOT metabolized

Q. I'd like to know its Bacterial Biotransformation. The compound in question is COc1c2occc2cc2ccc(=O)oc12 [METHOXSALEN]
A. Compound metabolized

Q. I'd like to know its Bacterial Biotransformation. The compound in question is CCN1CCCC1CNC(=O)c1cc(S(N)(=O)=O)ccc1OC (centres undefined) [SULPIRIDE]
A. Compound NOT metabolized

Q. I'd like to know its Bacterial Biotransformation. The compound in question is CN(C)CCC=C1c2ccccc2C=Cc2ccccc21 [CYCLOBENZAPRINE]
A. Compound NOT metabolized

Let us examine a further case.
Q. I'd like to know its Bacterial Biotransformation. The compound in question is CC(C(=O)O)c1ccc2c(c1)Cc1cccnc1O2 (centres undefined) [PRANOPROFEN]
A. Compound metabolized

Taken from ChEMBL document CHEMBL5724914.
